- System: HL-60(TB) leukemia
- assay.protocol: NCI tumour cell line growth inhibition, 48 h; in the data active = GI50 below about 0.43 µM; inactive = the rest
I would appreciate it if you answered using one of these outcomes: active, inactive

Known results for compounds:
- compound: "C[C@@]12CCC[C@@](C)(C(=O)O)C1CC[C@]13C=C(CO)[C@](O)(CCC12)C3 (some centres not stated)"
  cat: "inactive"
- compound: "NC(=O)c1ncn(C2OC(CO)C(O)C2O)n1 (configuration not stated)"
  cat: "inactive"
- compound: "COc1ccc(Nc2nc(NCc3ccccc3)c3ccccc3n2)cc1"
  cat: "inactive"

Query string: Which outcome did this test record for the compound "CNC(=O)c1cc(Oc2ccc3nc(NC(=O)c4cc(C(F)(F)F)cc(C(F)(F)F)c4)sc3c2)ccn1" ?
Result string: inactive

Query string: Please answer likewise for "O=C(c1ccc(F)c(F)c1Nc1ccc(I)cc1F)N1CC(O)([C@H]2CCCCN2)C1"
Result string: active

Query string: Please answer likewise for "CN(C)c1cc2c(Nc3ccc4nc(Cc5ccccc5)[nH]c4c3)ncnc2cn1"
Result string: inactive

Query string: Please answer likewise for "O=C(O[C@H]1CN[C@H](C#Cc2cc3ncnc(Nc4ccc(Cc5ccccc5)cc4)c3s2)C1)N1CCOCC1"
Result string: inactive

Query string: Please answer likewise for "CCOc1ccc(/C=N/Nc2cc(C)nc3ccc(Cl)cc23)cc1"
Result string: inactive

* * *

- Tested on: EKVX NSCLC
- assay.protocol: NCI tumour cell line growth inhibition, 48 h
TGI overview

The examples below pair each entry with its known result.
- compound: "C=CC1(c2ccc(Cl)c(Cl)c2)OCCO1"
  TGI: "> 100 µM"
- compound: "NC(CCc1ccccc1)(C(=O)O)c1ccccc1 (stereo unspecified)"
  TGI: "> 100 µM"
- compound: "N#CC(NC12CC3CC(CC(C3)C1)C2)c1ccccc1 (stereo unspecified)"
  TGI: "> 100 µM"
- compound: "Cn1c2c(c3c(=O)[nH]ncc31)CCc1ccccc1-2"
  TGI: "> 100 µM"

Query string: Which TGI is listed for "CCN(CC)C(=O)C1=C(C)NC(C)=C(C(=O)N(CC)CC)C1" ?
Result string: > 100 µM

Query string: Please answer likewise for "COc1ccc(Cc2nc3cc(Cl)ccc3o2)cc1"
Result string: 78.6 µM

* * *

TGI overview
- Tested on: OVCAR-4 ovarian
- assay.protocol: NCI tumour cell line growth inhibition, 48 h

The examples below pair each entry with its known result.
- compound: "O=C(Nc1cccnc1)c1cccs1"
  experimental.system: "OVCAR-4 ovarian"
  TGI: "> 100 µM"
- compound: "Oc1c(Cl)ccc2cccnc12"
  experimental.system: "OVCAR-4 ovarian"
  TGI: "> 100 µM"
- compound: "C#CCn1c(=O)c(C)cn(/C(=C/C(=O)OCC)C(=O)OCC)c1=O"
  experimental.system: "OVCAR-4 ovarian"
  TGI: "19.3 µM"
- compound: "NC(=S)SC1=NNC2(C(=O)N1)c1ccccc1-c1ccccc12"
  experimental.system: "OVCAR-4 ovarian"
  TGI: "> 10 µM"
- compound: "COC(=O)c1c2c(c[n+]([O-])c1C)C(=O)C(NCc1ccccc1)=CC2=O"
  experimental.system: "OVCAR-4 ovarian"
  TGI: "0.835 µM"
- compound: "CC1=NN(c2cccc(Cl)c2)C(=N/c2nc3ccccc3s2)/C1=C\\C=C\\c1ccccc1"
  experimental.system: "OVCAR-4 ovarian"
  TGI: "> 100 µM"
- compound: "C=CCOC1=C2CC[C@H](O)[C@@]2(C)CCC1=O"
  experimental.system: "OVCAR-4 ovarian"
  TGI: "> 100 µM"
- compound: "O=C(COC(c1ccc(F)cc1)c1ccc(F)cc1)N1CCN(CCCc2ccccc2)CC1"
  experimental.system: "OVCAR-4 ovarian"
  TGI: "12.6 µM"
- compound: "Cc1cc(O)c2c(c1O)C(=O)c1c(O)ccc(O)c1C2=O"
  experimental.system: "OVCAR-4 ovarian"
  TGI: "> 100 µM"
- compound: "COc1ccc2cc(-c3ccc(OC)c(OC)c3)c(=O)oc2c1"
  experimental.system: "OVCAR-4 ovarian"
  TGI: "> 100 µM"

Consider the additional compound presented here.
Query string: Which TGI is listed for "NC(N)=NS(=O)(=O)c1ccc(Nc2c3ccccc3nc3ccc(C(=O)Nc4ccc(S(N)(=O)=O)cc4)cc23)cc1" ?
Result string: > 100 µM

* * *

TGI overview
- System: SK-MEL-5 melanoma
- assay.protocol: NCI tumour cell line growth inhibition, 48 h

The examples below pair each entry with its known result.
- molecule: "COc1ccc(-c2cn3c(nc4ccccc43)c(C)n2)cc1"
  TGI: "> 100 µM"
- molecule: "NC(=O)ON=C1CCN(Cc2ccccc2)CC1"
  TGI: "> 100 µM"
- molecule: "COc1ccc(Cc2cc(OC)c(OC)c(OC)c2)cc1O"
  TGI: "> 37 µM"
- molecule: "COc1cc(/C=C2/C[C@H]3[C@@H]4CCC5=CC(=O)CC[C@]5(C)[C@H]4CC[C@]3(C)NC2=O)cc(OC)c1OC"
  TGI: "52.4 µM"
- molecule: "Cc1c(NC(=O)CCCl)c(=O)oc2c(C)c3occc(=O)c3cc12"
  TGI: "> 100 µM"
- molecule: "Nc1ccc(S(=O)(=O)Nc2nc3ccccc3nc2Nc2ccc(S(N)(=O)=O)cc2)cc1"
  TGI: "> 100 µM"

Query string: Which TGI is listed for "CCS(=O)(=O)c1ccc(OC)c(Nc2ncc(-c3cccc(-c4ccccc4F)c3)o2)c1" ?
Result string: > 25 µM

Query string: Please answer likewise for "CC(C)[C@@H]1NC(=O)[C@]2(C)CSC(=N2)c2csc(n2)CNC(=O)C[C@@H](/C=C/CCS)OC1=O"
Result string: 0.197 µM

Query string: Please answer likewise for "NCC(=O)Nc1ccc(-n2nc(C(F)(F)F)cc2-c2ccc3c(ccc4ccccc43)c2)cc1"
Result string: 2.56 µM

Query string: Please answer likewise for "CC(=O)O[C@@]12[C@@H]3O[C@@]4(O)C[C@]5(C)[C@H]6C[C@@](C(C)C)(O[C@H]5c5ccoc5)O[C@H]1[C@]6(C4)O[C@]2(O)C(C)=CC3(C)C"
Result string: > 100 µM

Query string: Please answer likewise for "CN(C)c1cc2c(cc1Sc1nc3c(N)nccc3n1CCNCC(C)(C)C)OCO2"
Result string: 13.2 µM

Query string: Please answer likewise for "NC(N)=NS(=O)(=O)c1ccc(Nc2c3ccccc3nc3ccc(C(=O)Nc4ccc(S(N)(=O)=O)cc4)cc23)cc1"
Result string: > 100 µM

* * *

- Test system: A498 renal
- assay.protocol: NCI tumour cell line growth inhibition, 48 h
reported.metric: TGI

The examples below pair each entry with its known result.
- molecule: "O=Cc1ncc(-c2ccc(C(F)(F)F)cc2)c(NC2CCCCCC2)n1"
  experimental.system: "A498 renal"
  TGI: "> 10 µM"
- molecule: "O=S1(=O)COc2ccccc2-c2ncncc21"
  experimental.system: "A498 renal"
  TGI: "> 100 µM"
- molecule: "NC(=O)Cc1ccccc1Oc1nccc(-c2c(-c3ccc(F)cc3)ncn2C2CCNCC2)n1"
  experimental.system: "A498 renal"
  TGI: "> 25 µM"
- molecule: "O=C(c1ccsc1)c1cc2c(s1)C(=O)c1ccsc1C2=O"
  experimental.system: "A498 renal"
  TGI: "2.94 µM"

Query string: Which TGI is listed for "Nc1cccc(-c2nc3sccn3c2-c2ccnc(NCCCNS(=O)(=O)c3ccc(C(F)(F)F)cc3)n2)c1" ?
Result string: 49.5 µM

Query string: Please answer likewise for O=S1c2ccccc2N=C(c2ccc3ccccc3c2)CC1c1ccccc1 (stereo unspecified)
Result string: 35.9 µM

Query string: Please answer likewise for "CCOC(=O)[C@H](Cc1ccccc1)NC(=O)c1nc[nH]c1[N+](=O)[O-]"
Result string: > 100 µM

Query string: Please answer likewise for "Fc1ccc(C2(CCCN3CCc4[nH]c5cc(F)ccc5c4C3)OCCO2)cc1"
Result string: 28.9 µM

Query string: Please answer likewise for "S=C1CNC(=S)CN1"
Result string: > 100 µM

Query string: Please answer likewise for COc1ccc(C2Cc3cc(OC)c(OC)c(OC)c3C2=O)cc1 (stereo unspecified)
Result string: > 100 µM

Query string: Please answer likewise for "Nc1ccc(-c2nc3cc(F)ccc3s2)cc1Br"
Result string: > 100 µM

* * *

log10(TGI) overview
- Test system: BT-549 breast
- assay.protocol: NCI tumour cell line growth inhibition, 48 h
# log10 transformed; quantity=TGI; unit=µM

- compound: "CC(=O)OCC1OC(O[C@@H]2C[C@H]3C(C)(C)[C@H](OC(C)=O)CC[C@]3(C)[C@H]3CC[C@@]45C[C@H](O)C[C@H](C)[C@@H]4CC=C5[C@@]32C)C(O)C(O)C1O (stereo partly drawn)"
  recorded.value: 1.10

Query string: Which log10(TGI) is listed for "COc1cc(/C=C2/C[C@H]3[C@@H]4CCC5=CC(=O)CC[C@]5(C)[C@H]4CC[C@]3(C)NC2=O)cc(OC)c1OC" ?
Result string: 1.73

Query string: Please answer likewise for CCN(CC)CC(O)CNc1ccc(NCC(O)CCl)c2c1C(=O)c1ccccc1C2=O (stereo not drawn)
Result string: 1.37

Query string: Please answer likewise for "CCOC(=O)c1c(Nc2ccccc2)sc2cccnc12"
Result string: 1.77

Query string: Please answer likewise for "C=CC[Se]C(=O)c1ccccc1OC(C)=O"
Result string: 0.51

Query string: Please answer likewise for CC(C)c1ccc2c(c1)[C@@]1(C)CC[C@H](C)C(C)(C)C1CC2 (stereo partly drawn)
Result string: 1.54

Query string: Please answer likewise for CC(Br)C(=O)c1ccc2cc(Br)c3ccccc3c2c1 (stereo not drawn)
Result string: 1.46

Query string: Please answer likewise for "CCN(CC)CCC(=O)c1ccc(Oc2ccc(C)cc2)cc1"
Result string: 1.51
